I'd be grateful if you could share measured pIC50 for these entries.
- Target Under Test: HIV protease (Human immunodeficiency virus type 1 group M subtype B, UniProt P04585)
- Construct: HIV protease is diluted in the assay buffer to a final enzyme concentration of 12.3 nanomolar, based on a molecular weight of 10,780
- Procedure Text: biochemical
- Type: biochemical
- Condition Set: IC50, Table 14; above-described enzyme assay
One number for each entry, as −log10 of the molar value.

CC(C)CN(CC(O)C(Cc1ccccc1)NC(=O)C(CC(N)=O)NC(=O)c1ccc2ccccc2n1)C(=O)NC(C)(C)C (centres unmarked) ... 8.15

# evaluate next
Provide measured pIC50 value, entry: CC(C)(C)NC(=O)N(CCc1ccccc1)CC(O)C(Cc1ccccc1)NC(=O)C(CC(N)=O)NC(=O)c1ccc2ccccc2n1 (centres unmarked)
8.00

====

- Target Under Test: HIV protease (Human immunodeficiency virus type 1 group M subtype B, UniProt P04585)
- Construct: HIV protease is diluted in the assay buffer to a final enzyme concentration of 12.3 nanomolar, based on a molecular weight of 10,780
- Procedure Text: biochemical
- Format: biochemical
- Condition Set: Table 13; 12.3 nanomolar enzyme, 80 µM substrate, pH 6.4, ambient temperature
Reported Property: IC50 (nM)
Give bare numbers, in nM.

Provide measured IC50 value, entry: CC(C)CCN(C[C@@H](O)[C@H](Cc1ccccc1)NC(=O)[C@H](CC(N)=O)NC(=O)OCc1ccccc1)C(=O)NC(C)(C)C (relative stereo)
18

====

- Target Under Test: HIV protease (Human immunodeficiency virus type 1 group M subtype B)
- Construct: HIV protease is diluted in the assay buffer to a final enzyme concentration of 12.3 nanomolar, based on a molecular weight of 10,780
- Procedure Text: biochemical
- Format: biochemical
- Condition Set: IC50, Table 13; 12.3 nanomolar enzyme, 80 µM substrate, pH 6.4, ambient temperature
Please assign 0 whenever IC50 is at or above 7 nM, and 1 whenever it is below.

Worked examples follow.
CC(C)(C)NC(=O)N(CCc1ccccc1)CC(O)C(Cc1ccccc1)NC(=O)C(CC(N)=O)NC(=O)c1ccc2ccccc2n1 (centres unmarked) [Compound 4b] ... 0
COc1ccc(COC(=O)NC[C@@H](C)C(=O)N[C@@H](Cc2ccccc2)[C@H](O)CN(CCC(C)C)C(=O)NC(C)(C)C)cc1 [Compound 8] ... 1
CC(C)CCN(CC(O)C(Cc1ccccc1)NC(=O)C(CC(N)=O)NC(=O)c1ccc2ccccc2n1)C(=O)NC(C)(C)C (centres unmarked) [Compound 2b] ... 1

We next turn to a different compound, shown below.
IC50 under 7 nM? Item: CC(C)CCN(C[C@@H](O)[C@H](Cc1ccccc1)NC(=O)[C@H](C)C(C)(C)C(=O)O)C(=O)NC(C)(C)C [Compound 11]
0
